Cited source: ChEMBL document CHEMBL3228040

testSystem: Opioid receptor (Rattus norvegicus, UniProt P33533+P34975+P33535)
assay: Displacement of radiolabeled dihydromorphine from opioid receptor in rat brain homogenates
Format: tissue-based
# reported EC50; entries follow
All answers are understood in nM, so give the number only.

Solved entries:
| compound | testSystem | numericReadout |
| --- | --- | --- |
| CCC(=O)C1(c2cccc(O)c2)CCN(C)CC1 | Opioid receptor (Rattus norvegicus, UniProt P33533+P34975+P33535) | 2 |
| CC[C@H]1C2Cc3ccc(O)cc3[C@@]1(C)CCN2CCC(N)=O (mixture of isomers) | Opioid receptor (Rattus norvegicus, UniProt P33533+P34975+P33535) | 9 |
| CC[C@H]1C2Cc3ccc(O)cc3[C@@]1(C)CCN2CCC#N (mixture of isomers) | Opioid receptor (Rattus norvegicus, UniProt P33533+P34975+P33535) | 4 |
| CC[C@H]1C2Cc3ccc(O)cc3[C@@]1(C)CCN2C (mixture of isomers) | Opioid receptor (Rattus norvegicus, UniProt P33533+P34975+P33535) | 15 |
| CCOC(=O)C1(c2ccccc2)CCN(CCC#N)CC1 | Opioid receptor (Rattus norvegicus, UniProt P33533+P34975+P33535) | 8000 |

Given the compound CC1C2Cc3ccc(O)cc3C1(C)CCN2C (racemic) and test system Opioid receptor (Rattus norvegicus, UniProt P33533+P34975+P33535), the measured EC50 is 9

Given the compound "CCC(=O)C1(c2cccc(O)c2)CCN(CCC#N)CC1" and test system Opioid receptor (Rattus norvegicus, UniProt P33533+P34975+P33535), the measured EC50 is 1500
